system: DeltatarO mutant; experiment: S. aureus survival, RN4220 and DeltatarO strains – OD600, teichoic acid synthesis inhibitors, primary screen (AID 463173); settings: S. aureus RN4220 wild type/DeltatarO growth, OD600, 18 h, hits give low values, screened at 18.75 µg/mL (by protocol)
Screen size: about 52,000 compounds; about 4,300 (8.3%) were called active. The full list was thinned out, with actives kept by preference.
Below, each of the compounds is paired with its reported survival value.
Result type: survival (%)

INSERT INTO assay_data (compound, result_value) VALUES
  ('COc1ccc(S(=O)(=O)N2CCC(c3ccncc3)CC2)cc1Cl', 124),
  ('CCCn1c(SCC(O)c2ccccc2)nc2ccccc21 (stereo unspecified)', 86),
  ('CCc1cccc2c(-c3ccccc3)nc(SCC(=O)Nc3ccccc3OC)nc12', 109),
  ('CCCC(=O)N1CCCC(c2nc(-c3ccc(OC)cc3)no2)C1 (stereo unspecified)', 82),
  ('CC(C)NC(=O)C1CC(=O)N(c2ccc(Oc3ccccc3)cc2)C1 (stereo unspecified)', 87),
  ('COc1cc(Cl)c(C)cc1NC(=O)c1cc2c(Cl)nc3ccc(C)cc3c2s1', 64);
